ASSAY_SYSTEM: His-tagged CRBN-DDB1 complex (Homo sapiens)
EXPERIMENT_NOTES: Time-Resolved Fluorescence Resonance Energy Transfer (TR-FRET / HTRF) CRBN binding assay, displacement of Cy5-labeled thalidomide
MEASUREMENT_CONDITIONS: His-CRBN-DDB1, Cy5-thalidomide 8 nM, 1 hour room temperature
Description: Time-Resolved Fluorescence Resonance Energy Transfer (TR-FRET) Assay. Equal volumes of His-tagged CRBN-DDB1 complex (56 nM) was mixed with Eu-cryptate labeled Anti-6HIS-monoclonal antibody (50× dilution from the commercial stock solution, Vender: Cisbio, Cat. #61HI2KLA) in a final buffer containing 20 mM HEPES pH 7.0, 150 mM NaCl, 0.005% Tween-20. […] The mixture were incubated at room temperature for 1 hour. […] FRET efficiency was calculated as the ratio of fluorescent signals at 665 nM/615 nM. […]
Listed next: entries and their corresponding IC50.

A selection of reference data follows.
COMPOUND	IC50
NCCCC#Cc1ccc(Oc2cccc3c2C(=O)NC(=O)C3)cc1	< 10 µM
O=C1Cc2ccc(F)cc2C(=O)N1	30 to 100 µM
Cc1cccc(CC(=O)N2C[C@@H]3C(=O)NC(=O)[C@@H]3C2)c1	> 100 µM

Return reported IC50; argument: `Nc1ccc(N2C[C@@H]3C(=O)NC(=O)[C@@H]3C2)cc1`
> 100 µM

Next entry: `O=C1CC2(CCN(Cc3cc4ccccc4o3)CC2)CC(=O)N1`
> 100 µM

Next entry: `O=C1NC(=O)[C@@H]2CN(Cc3c[nH]cn3)C[C@H]12`
> 100 µM

---

Listed next: entries and their corresponding IC50.
ASSAY_SYSTEM: His-tagged CRBN-DDB1 complex (Homo sapiens, UniProt Q96SW2)
Sequence (Q96SW2 whole entry): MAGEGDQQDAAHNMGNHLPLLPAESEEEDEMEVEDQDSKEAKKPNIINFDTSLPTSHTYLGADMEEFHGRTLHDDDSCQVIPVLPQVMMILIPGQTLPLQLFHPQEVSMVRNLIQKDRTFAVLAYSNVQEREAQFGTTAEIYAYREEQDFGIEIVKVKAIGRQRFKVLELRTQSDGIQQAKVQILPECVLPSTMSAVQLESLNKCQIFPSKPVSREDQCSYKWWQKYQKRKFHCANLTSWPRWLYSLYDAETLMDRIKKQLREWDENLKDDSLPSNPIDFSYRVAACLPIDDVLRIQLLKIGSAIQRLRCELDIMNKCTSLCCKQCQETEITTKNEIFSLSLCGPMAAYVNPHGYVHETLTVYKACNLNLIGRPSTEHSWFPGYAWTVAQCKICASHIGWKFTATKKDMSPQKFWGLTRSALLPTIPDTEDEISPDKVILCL
Sequence (Q16531 whole entry partner): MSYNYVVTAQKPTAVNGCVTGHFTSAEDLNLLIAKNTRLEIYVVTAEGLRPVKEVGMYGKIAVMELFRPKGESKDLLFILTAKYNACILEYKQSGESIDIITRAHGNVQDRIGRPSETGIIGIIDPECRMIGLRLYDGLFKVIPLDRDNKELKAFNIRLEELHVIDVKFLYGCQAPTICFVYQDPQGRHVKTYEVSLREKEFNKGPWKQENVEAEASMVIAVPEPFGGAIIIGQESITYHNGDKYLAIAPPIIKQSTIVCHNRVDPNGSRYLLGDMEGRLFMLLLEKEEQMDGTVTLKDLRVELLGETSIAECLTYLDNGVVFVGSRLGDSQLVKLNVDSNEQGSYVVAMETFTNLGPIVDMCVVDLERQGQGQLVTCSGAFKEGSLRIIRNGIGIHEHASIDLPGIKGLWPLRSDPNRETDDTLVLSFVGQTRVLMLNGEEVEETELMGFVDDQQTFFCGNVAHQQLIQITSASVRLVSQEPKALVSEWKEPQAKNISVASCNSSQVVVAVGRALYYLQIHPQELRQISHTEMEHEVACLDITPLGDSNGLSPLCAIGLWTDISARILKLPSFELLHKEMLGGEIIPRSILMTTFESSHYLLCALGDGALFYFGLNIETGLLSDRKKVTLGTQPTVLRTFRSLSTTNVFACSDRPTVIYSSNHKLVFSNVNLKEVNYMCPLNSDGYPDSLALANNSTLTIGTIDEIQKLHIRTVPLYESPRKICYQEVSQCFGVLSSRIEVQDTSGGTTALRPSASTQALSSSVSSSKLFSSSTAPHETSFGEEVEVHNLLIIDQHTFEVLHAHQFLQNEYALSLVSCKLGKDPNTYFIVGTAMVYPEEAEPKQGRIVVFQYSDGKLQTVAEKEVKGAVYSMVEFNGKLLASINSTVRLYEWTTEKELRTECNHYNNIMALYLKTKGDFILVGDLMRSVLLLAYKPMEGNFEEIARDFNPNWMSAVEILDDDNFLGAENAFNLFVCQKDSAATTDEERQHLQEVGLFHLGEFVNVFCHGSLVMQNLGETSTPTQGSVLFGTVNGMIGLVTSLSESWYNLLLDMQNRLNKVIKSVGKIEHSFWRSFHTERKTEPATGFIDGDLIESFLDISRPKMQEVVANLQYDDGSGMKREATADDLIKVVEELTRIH
EXPERIMENT_NOTES: Time-Resolved Fluorescence Resonance Energy Transfer (TR-FRET / HTRF) CRBN binding assay, displacement of Cy5-labeled thalidomide
MEASUREMENT_CONDITIONS: His-CRBN-DDB1, Cy5-thalidomide 8 nM, 1 hour room temperature

STRUCTURE_STRING	IC50
O=C1NC(=O)[C@@H]2CN(C3CCN(Cc4ccccc4)CC3)C[C@H]12	> 100 µM
NCc1cccc2c1C(=O)NC(=O)C2	10 to 30 µM
Cc1cc(C(=O)N2C[C@@H]3C(=O)NC(=O)[C@@H]3C2)ccn1	> 100 µM

Lab request: please report IC50 under test system His-tagged CRBN-DDB1 complex (Homo sapiens, UniProt Q96SW2) for `CC(C)(C)OC(=O)NCCCCCC#Cc1ccccc1Oc1cccc2c1C(=O)NC(=O)C2=O`
< 10 µM

Next entry: `O=C1CC2(CCN(Cc3ccccc3)CC2)CC(=O)N1`
> 100 µM

Next entry: `O=C1CC2(CCN(Cc3ccc(F)c4ccccc34)CC2)CC(=O)N1`
> 100 µM

Next entry: `NC(=O)c1ccc2c(c1)C(=O)NC(=O)C2`
30 to 100 µM

Next entry: `CC(C)(C)OC(=O)NCc1cccc(Oc2cccc3c2C(=O)NC(=O)C3)c1`
10 to 30 µM

Next entry: `O=C1CC2(CCN(C(=O)c3cnco3)CC2)CC(=O)N1`
> 100 µM

Next entry: `Cc1cccc(C(=O)N2C[C@@H]3C(=O)NC(=O)[C@@H]3C2)c1`
> 100 µM

Next entry: `CCCCOc1ccc(CN2CCC3(CC2)CC(=O)NC(=O)C3)cc1`
> 100 µM

Next entry: `Nc1cccc2c1C(=O)NC(=O)C2`
> 100 µM

Next entry: `N#Cc1ccccc1N1CCC2(CC1)CC(=O)NC(=O)C2`
> 100 µM

Next entry: `O=C1CC2(CCN(Cc3ccc([N+](=O)[O-])s3)CC2)CC(=O)N1`
30 to 100 µM

Next entry: `CC(C)(C)OC(=O)NCCCCCC#Cc1cccc(Oc2cccc3c2C(=O)NC(=O)C3)c1`
30 to 100 µM

Next entry: `O=C1Cc2cccc(NC(=O)c3ccccc3)c2C(=O)N1`
< 10 µM

Next entry: `NCCCC#Cc1ccc(Oc2cccc3c2C(=O)NC(=O)C3=O)cc1`
< 10 µM

Next entry: `O=C1CC2(CCN(CCc3ccccc3)CC2)CC(=O)N1`
> 100 µM

Next entry: `NC(=O)c1ccc(N2CCC3(CC2)CC(=O)NC(=O)C3)cc1`
> 100 µM
